systemTested: recombinant Human Phosphodiesterase B2 (PDE4B2) (Homo sapiens, UniProt Q07343)
Sequence (Q07343 1-564 isoform Q07343-2): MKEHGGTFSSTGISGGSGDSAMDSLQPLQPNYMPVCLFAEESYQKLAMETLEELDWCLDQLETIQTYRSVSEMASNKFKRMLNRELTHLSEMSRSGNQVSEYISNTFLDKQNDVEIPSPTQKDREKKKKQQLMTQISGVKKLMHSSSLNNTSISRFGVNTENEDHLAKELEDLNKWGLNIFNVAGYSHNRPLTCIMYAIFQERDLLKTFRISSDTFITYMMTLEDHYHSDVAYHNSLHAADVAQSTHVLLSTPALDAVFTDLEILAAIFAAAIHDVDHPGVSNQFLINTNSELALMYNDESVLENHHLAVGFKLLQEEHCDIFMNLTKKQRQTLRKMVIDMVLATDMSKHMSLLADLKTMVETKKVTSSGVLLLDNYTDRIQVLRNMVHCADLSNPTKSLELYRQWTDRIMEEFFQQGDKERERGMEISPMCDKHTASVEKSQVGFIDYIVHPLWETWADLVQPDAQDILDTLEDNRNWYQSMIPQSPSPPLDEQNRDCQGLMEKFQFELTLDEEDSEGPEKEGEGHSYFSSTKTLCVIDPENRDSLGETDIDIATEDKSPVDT
test: Human Phosphodiesterase B2 Radiometric Assay (yttrium silicate SPA beads, [3H]cyclic AMP)
Format: biochemical
conditionSummary: recombinant human PDE4B2, radiometric SPA assay, 8 nM [3H]cyclic AMP; read-out: PDE4B2 pIC50 (converted)
measuredProperty: IC50 (nM)

Below, 6 compounds whose answers are already recorded.
O=c1c2cc(F)cnc2n(-c2cccc(-c3ccc(O)cc3CN3CCCOCC3)c2)c(=O)n1[C@H]1CC[C@@H](NCc2cn3cc(F)ccc3n2)CC1 [Example 254] :: 0.0316
COc1ccc(CN[C@H]2CC[C@@H](n3c(=O)c4cc(F)cnc4n(-c4cccc(-c5ccc(CN6CCN(C(C)C)CC6)cc5)c4)c3=O)CC2)cc1Cl [Example 260] :: 0.501
CN1CCCN(Cc2ccc(-c3cccc(-n4c(=O)n([C@H]5CC[C@@H](NC(=O)C(C)(C)N)CC5)c(=O)c5cc(F)cnc54)c3)cc2)CC1 [Example 311] :: 1
CN1CCN(CC(=O)N[C@H]2CC[C@@H](n3c(=O)c4cc(F)cnc4n(-c4cccc(-c5ccc(CN6CCCN(C)CC6)cc5)c4)c3=O)CC2)CC1 [Example 291] :: 0.2
Cc1ccc(CN[C@H]2CC[C@@H](n3c(=O)c4cc(F)cnc4n(-c4cccc(-c5ccc(CN6CCN(C(C)C)CC6)cc5)c4)c3=O)CC2)s1 [Example 261] :: 0.631
O=C(N[C@H]1CC[C@@H](n2c(=O)c3cc(F)cnc3n(-c3ccc4c(cnn4Cc4ccccc4)c3)c2=O)CC1)c1cn2ccccc2n1 [Example 35] :: 6.31

a: C[C@@H]1CN(Cc2ccc(-c3cccc(-n4c(=O)n([C@H]5CC[C@@H](NC(=O)C6(N(C)C)CC6)CC5)c(=O)c5cc(F)cnc54)c3)cc2)C[C@H](C)O1 [Example 209]
b: CC(C)CCCC(C)n1c(=O)n([C@H]2CC[C@@H](NC(=O)c3cn4cc(F)ccc4n3)CC2)c(=O)c2cc(F)cnc21 (some centres unmarked) [Example 36]
c: CC(=O)n1cc(CN(Cc2cn(C(C)=O)c3ccccc23)[C@H]2CC[C@@H](n3c(=O)c4cc(F)cnc4n(-c4cccc(-c5ccc(CN6CCN(C(C)C)CC6)cc5)c4)c3=O)CC2)c2ccccc21 [Example 341]
d: O=C(N[C@H]1CC[C@@H](n2c(=O)c3cc(F)cnc3n(-c3cccc(-c4ccc(OCCN5CCCC5)cc4)c3)c2=O)CC1)c1cn2cc(F)ccc2n1 [Example 79]
e: COc1ccc(O)c(CN[C@H]2CC[C@@H](n3c(=O)c4cc(F)cnc4n(-c4cccc(-c5ccc(CN6CCCOCC6)cc5)c4)c3=O)CC2)c1 [Example 267]
Write the entries in order, lowest recorded IC50 first. Answer by naming the labels in the order asked. a, d, c, e, b
(a: 0.00631 nM, d: 0.02 nM, c: 0.501 nM, e: 1.58 nM, b: 6.31 nM)

---

systemTested: recombinant Human Phosphodiesterase B2 (PDE4B2) (Homo sapiens, UniProt Q07343)
test: Human Phosphodiesterase B2 Radiometric Assay (yttrium silicate SPA beads, [3H]cyclic AMP)
Assay type: biochemical
conditionSummary: recombinant human PDE4B2, radiometric SPA assay, 8 nM [3H]cyclic AMP; read-out: PDE4B2 pIC50 (converted)
measuredProperty: IC50 (nM)

P: CN(C)Cc1ccccc1-c1cccc(-n2c(=O)n([C@H]3CC[C@@H](NC(=O)[C@H]4CCCN4C)CC3)c(=O)c3cc(F)cnc32)c1 [Example 88]
Q: O=C(N[C@H]1CC[C@@H](n2c(=O)c3cc(F)cnc3n(-c3cccc(-c4ccc(OCCO)cc4)c3)c2=O)CC1)c1cn2cc(F)ccc2n1 [Example 58]
Smaller IC50 value? Options are P and Q Identify your pick by its label. Q

---

systemTested: recombinant Human Phosphodiesterase B2 (PDE4B2) (Homo sapiens)
test: Human Phosphodiesterase B2 Radiometric Assay (yttrium silicate SPA beads, [3H]cyclic AMP)
Format: biochemical
conditionSummary: recombinant human PDE4B2, radiometric SPA assay, 8 nM [3H]cyclic AMP; read-out: PDE4B2 pIC50 (converted)
measuredProperty: IC50 (nM)

Below, 2 compounds whose answers are already recorded.
CC(C)N1CCN(Cc2ccc(-c3cccc(-n4c(=O)n([C@H]5CC[C@@H](NC(=O)c6nccn6C)CC5)c(=O)c5cc(F)cnc54)c3)cc2)CC1 :: 0.316
CC(=O)N[C@H]1CC[C@@H](n2c(=O)c3cc(F)cnc3n(-c3cccc(-c4ccccc4)c3)c2=O)CC1 :: 0.398

A: CC(C)c1ccc(CN[C@H]2CC[C@@H](n3c(=O)c4cc(F)cnc4n(-c4cccc(-c5ccc(O)cc5CN5CCOCC5)c4)c3=O)CC2)cc1
B: O=C(N[C@H]1CC[C@@H](n2c(=O)c3cc(F)cnc3n(-c3cccc(-c4ccc(CCCO)cc4)c3)c2=O)CC1)c1cn2cc(F)ccc2n1
C: O=c1c2cc(F)cnc2n(-c2cccc(-c3ccc(O)cc3CN3CCOCC3)c2)c(=O)n1[C@H]1CC[C@@H](NCc2cc3ccccc3o2)CC1
D: O=c1c2cc(F)cnc2n(-c2cccc(-c3ccc(O)cc3CN3CCOCC3)c2)c(=O)n1[C@H]1CC[C@@H](NCc2ccccc2F)CC1
E: CN(C)CCOc1cc(F)ccc1-c1cccc(-n2c(=O)n([C@H]3CC[C@@H](NC(=O)c4cn5cc(F)ccc5n4)CC3)c(=O)c3cc(F)cnc32)c1
Write the entries in order, lowest recorded IC50 first. Answer by naming the labels in the order asked. B, C, E, D, A
(B: 0.02 nM, C: 0.0398 nM, E: 0.2 nM, D: 0.794 nM, A: 1.26 nM)

---

systemTested: recombinant Human Phosphodiesterase B2 (PDE4B2) (Homo sapiens, UniProt Q07343)
test: Human Phosphodiesterase B2 Radiometric Assay (yttrium silicate SPA beads, [3H]cyclic AMP)
Type: biochemical
conditionSummary: recombinant human PDE4B2, radiometric SPA assay, 8 nM [3H]cyclic AMP; read-out: PDE4B2 pIC50 (converted)
measuredProperty: IC50 (nM)

A: O=c1c2cc(F)cnc2n(-c2cccc(-c3ccc(O)cc3CN3CCC[C@@H]3CO)c2)c(=O)n1[C@H]1CC[C@@H](NCc2cn3cc(F)ccc3n2)CC1
B: O=c1c2cc(F)cnc2n(-c2cccc(-c3ccc(O)cc3CN3CCOCC3)c2)c(=O)n1[C@H]1CC[C@@H](NCc2cn3cc(F)ccc3n2)CC1
C: Cc1cc(C(=O)N[C@H]2CC[C@@H](n3c(=O)c4cc(F)cnc4n(-c4cccc(-c5ccc(CN(C)C(C)(C)C)cc5)c4)c3=O)CC2)nn1C
In this exercise, place the 3 compounds in ascending sequence of their recorded IC50. Answer by naming the labels in the order asked. B, A, C

---

systemTested: recombinant Human Phosphodiesterase B2 (PDE4B2) (Homo sapiens)
test: Human Phosphodiesterase B2 Radiometric Assay (yttrium silicate SPA beads, [3H]cyclic AMP)
Type: biochemical
conditionSummary: recombinant human PDE4B2, radiometric SPA assay, 8 nM [3H]cyclic AMP; read-out: PDE4B2 pIC50 (converted)
measuredProperty: IC50 (pM)

Below, 3 molecules whose answers are already recorded.
O=C(N[C@H]1CC[C@@H](n2c(=O)c3cc(F)cnc3n(-c3cccc(-c4cccc(CN5CCOCC5)c4)c3)c2=O)CC1)c1cn2cc(F)ccc2n1 :: 63.1
Cc1cccc(C(=O)N[C@H]2CC[C@@H](n3c(=O)c4cc(F)cnc4n(-c4cccc(-c5ccc(CN6CCN(C7CCCC7)CC6)cc5)c4)c3=O)CC2)n1 :: 15.8
O=C(N[C@H]1CC[C@@H](n2c(=O)c3cc(F)cnc3n(CCc3ccccc3)c2=O)CC1)c1cn2cc(F)ccc2n1 :: 3160

I: O=c1c2cc(F)cnc2n(-c2cccc(-c3ccc(O)cc3CN3CCOCC3)c2)c(=O)n1[C@H]1CC[C@@H](NCc2cc(Cl)ccc2O)CC1
II: O=C(N[C@H]1CC[C@@H](n2c(=O)c3cc(F)cnc3n(-c3cccc(-c4ccc(F)cc4O)c3)c2=O)CC1)c1cn2cc(F)ccc2n1
Response body: label of entry with the larger IC50; valid values I , II . Identify your pick by its label. I

A: CC(C)N1CCN(Cc2ccc(-c3cccc(-n4c(=O)n([C@H]5CC[C@@H](NCc6cnn(C)c6-c6ccccc6)CC5)c(=O)c5cc(F)cnc54)c3)cc2)CC1
B: C[C@@H]1CN(Cc2ccc(-c3cccc(-n4c(=O)n([C@H]5CC[C@@H](NC(=O)c6cnc7ccccc7n6)CC5)c(=O)c5cc(F)cnc54)c3)cc2)C[C@H](C)N1
C: O=C(N[C@H]1CC[C@@H](n2c(=O)c3cc(F)cnc3n(-c3cccc(-c4ccc(CN5CCCN(CCO)CC5)cc4)c3)c2=O)CC1)c1cn2c(n1)CCCC2
Please list these molecules in decreasing order of IC50. Answer by naming the labels in the order asked. A, B, C
(A: 2510 pM, B: 20 pM, C: 6.31 pM)

A: CCN1CCN(Cc2ccc(-c3cccc(-n4c(=O)n([C@H]5CC[C@@H](NC(=O)C6(N(C)C)CC6)CC5)c(=O)c5cc(F)cnc54)c3)cc2)CC1
B: O=c1c2cc(F)cnc2n(-c2cccc(-c3ccc(CN4CCCOCC4)cc3)c2)c(=O)n1[C@H]1CC[C@@H](N(Cc2cn3cc(F)ccc3n2)Cc2cn3cc(F)ccc3n2)CC1
Smaller IC50 value? Options are A and B Identify your pick by its label. A

1: N[C@H]1CC[C@@H](n2c(=O)c3cc(F)cnc3n(-c3cccc(C(=O)O)c3)c2=O)CC1
2: CSc1ccccc1-c1cccc(-n2c(=O)n([C@H]3CC[C@@H](NC(=O)c4cn5cc(F)ccc5n4)CC3)c(=O)c3cc(F)cnc32)c1
Smaller IC50 value? Options are 1 and 2 Identify your pick by its label. 2
(2: 7.94 pM, 1: 7940 pM)

Data provenance is patent US20100204203A1.
